Experiment: Inhibition of HCV NS5B Cdelta21 RNA polymerase activity assessed as incorporation of [33P]-CTP into heteropolymer RNA template after 150 mins
Design: species or system Hepacivirus hominis
Quick reference for IC50 among some compounds
Field format: number, assumed nM, no unit text.

{"item smiles": "Nc1cc(Cn2c(C(=O)NS(=O)(=O)c3ccc(O)cc3)c(-c3ccc[nH]c3=O)c3cc(Cl)ccc32)ccn1", "value units": "nM", "IC50": 24}
{"item smiles": "NS(=O)(=O)c1c(-c2ccc[nH]c2=O)c2cc(Cl)ccc2n1Cc1ccc(F)cc1F", "value units": "nM", "IC50": 2700}
{"item smiles": "CS(=O)(=O)NC(=O)Cc1c(-c2ccc[nH]c2=O)c2cc(Cl)ccc2n1Cc1ccnc(N)c1", "value units": "nM", "IC50": 2200}

Pending compound:
// returns reported IC50 for input CCS(=O)(=O)NC(=O)c1c(-c2ccc[nH]c2=O)c2cc(Cl)ccc2n1Cc1ccnc(N)c1 18
